- Method Summary: NCI Yeast Anticancer Drug Screen. Data for the cln2 rad14 strain (AID 165);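 further: 0% = growth equal to vehicle treated cultures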
- Assay Setup: S. cerevisiae cln2 rad14 strain, at 50.0 µM (retest, dose inferred, filed as 5.0), hits give high values
About 79,000 compounds went through this panel and 15% of them were active in at least one assay; those are over-represented in the sample as a whole.
Recorded growth inhibition, one value per entry.
Give the value in % but do not write % after it.

Field: example entries. Status: answers known.
* COc1ccc(Nc2nc3ccc(C(F)(F)F)cc3nc2C(=O)O)cc1 | 37
* Oc1ccc(Nc2ccc3ccccc3c2)cc1 | 98
* N=C1C=C(N)C(=O)c2ccccc21 | 54
* Cc1ccc2c(c1)sc(-c1ccc(N(C)C)cc1)[n+]2C | 98
* OC(c1cc(C23CC4CC(CC(C4)C2)C3)nc2c(Cl)cc(Cl)cc12)C1CCCCN1 (stereo unspecified) | 98
* c1ccc(C2NCCNC2c2ccccc2)cc1 (stereo unspecified) | -6
* CC(C)(C)S(=O)(=O)O.[Ag] | 99
* Cc1ccc2cccc(OC(=O)Nc3cccc(C(F)(F)F)c3)c2n1 | 98

## Input Identify growth inhibition associated with the compound COC(=O)c1nc(=S)[nH]c(C(=O)OC)c1C(=O)c1ccc(Cl)c(Cl)c1
## Output 95

## Input Using known records, supply growth inhibition for CCCOC(=O)c1nc(N(CC2CCCCC2)C(=O)NC)sc1/N=C/c1ccccc1
## Output 88

## Input Look up and report measured growth inhibition for this entry: Cc1nc([N+](=O)[O-])c(Sc2nncc(-c3ccccc3)n2)n1C
## Output 9
